Each recorded value in this set is attributed to the supplement of paper PMC10567573.

Experiment: protein stability index of a GFP-peptide fusion (GPS, HEK-293T) (PSI 1-6); higher = more stable;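 also: 24-mer peptide tiles fused after GFP, lentivirally expressed, FACS-sorted into six equal bins by GFP/DsRed ratio, decoded by Illumina sequencing, PSI is the read-weighted mean bin number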
Details: treatment: DMSO; c terminus: a fixed tail appended
Catalogue of protein stability index readings, one per entry.
# output: bare number, no unit

{"Sequence": "WDSFSAWLHCVCVVGFDLELGQAV [DENND6A]", "Assay Readout": "protein stability index", "Readout Number": 3.04}
{"Sequence": "NYMVQTEDQYIFIHDALLEAVTCG [PTPRD]", "Assay Readout": "protein stability index", "Readout Number": 2.25}
{"Sequence": "LVSGSQSALGPPPAASNSSDLFDL [CLINT1]", "Assay Readout": "protein stability index", "Readout Number": 4.43}
{"Sequence": "QIENLNIQVEDIRIRAILSTYRKR [LOXL2]", "Assay Readout": "protein stability index", "Readout Number": 2.67}
{"Sequence": "EPNRLETGEAGEELDLRLRLAQPS [RTN2]", "Assay Readout": "protein stability index", "Readout Number": 5.17}

Value of measured protein stability index for the entry STFRTPAVLFTGIVALYIASGLTG [ATL3] : 3.09

Value of measured protein stability index for the entry LALRTLPGPSWVRGSGPSVLSRLQ [ALKBH7] : 2.62

Value of measured protein stability index for the entry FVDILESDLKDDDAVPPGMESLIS [CDC25B] : 3.55

Value of measured protein stability index for the entry TDIELEIYGMEGIPEKDMDERRRL [ZNF207] : 4.77

###

Assay: protein stability index of a GFP-peptide fusion (GPS, HEK-293T) (PSI 1-6); higher = more stable
Details: treatment: MLN4924 1 uM, 8 h; c terminus: a fixed tail appended
Response key: true means protein stability index >= 3; false means protein stability index < 3.

{"Sequence": "RCGYRLVRRQRSADEQLHCAGKAK [ESR2]", "Category": "true"}
{"Sequence": "ELERCRQQAGLLVTGEKEEPSRSA [PPEF2]", "Category": "true"}
{"Sequence": "LRKREKAEEKERRRKEYDALKAAK [LRRC59]", "Category": "true"}
{"Sequence": "VEDLVDSLKLALLFYILTFVGAIF [RTN2]", "Category": "false"}
{"Sequence": "KYGDIPRGIFVVRGENVVLLGEID [LSM1]", "Category": "false"}

query: # check: protein stability index of PPPPPPPPAELKAEPGFEPADCKR [CEBPB] is greater than or equal to 3
result: true

query: # check: protein stability index of NAIPGRTDIELEIYGMEGIPEKDM [ZNF207] is greater than or equal to 3
result: true

query: # check: protein stability index of DTMRQINKKGFWSYGPVILVVLVV [TOR1AIP2] is greater than or equal to 3
result: false

query: # check: protein stability index of YANLALSGLIEIQSYPLCIYLINQ [SLC22A15] is greater than or equal to 3
result: true

query: # check: protein stability index of QAQKDPKKDRPLARRKSELPQDPH [PPP2R5C] is greater than or equal to 3
result: true

query: # check: protein stability index of NIHENKRTGSLFKIWLVVPSLLEL [KLHDC10] is greater than or equal to 3
result: true

query: # check: protein stability index of EGMDRWIKKIEEHAPGVPKILVGN [RAB40A] is greater than or equal to 3
result: true

query: # check: protein stability index of LLLLSKAKLVPSEREASPSNSCQD [IKZF1] is greater than or equal to 3
result: true

query: # check: protein stability index of GDELYEQSDEEQDSVKVALLETNP [CLPTM1] is greater than or equal to 3
result: true

query: # check: protein stability index of FDNPQVRFFLGDLCSRQDLYPALK [NSDHL] is greater than or equal to 3
result: false

query: # check: protein stability index of NAVKYVSNIKFCSFHPLQYIGFYG [PDS5B] is greater than or equal to 3
result: false

query: # check: protein stability index of KLRQMRVEKFIYENHPDVFSDSSM [MYOZ1] is greater than or equal to 3
result: false

query: # check: protein stability index of ASKGCQLGKTEQGFENMDFFTLDL [TRIM63] is greater than or equal to 3
result: true

query: # check: protein stability index of PRLFKEWNITKLSIEYDSEPFGKE [CRY1] is greater than or equal to 3
result: true

query: # check: protein stability index of MTVMSGENVDEASAAPGHPQDGSY [KCNA1] is greater than or equal to 3
result: true

query: # check: protein stability index of EMHTSRDHSSQSEEEVVEGEKEVE [BNIP3L] is greater than or equal to 3
result: true

query: # check: protein stability index of EGDVLDTLEALGYKGPLLEEQALT [FAM98B] is greater than or equal to 3
result: true

query: # check: protein stability index of QSLTQRLHALKLRSPDASPSRAPP [GNAS] is greater than or equal to 3
result: true

query: # check: protein stability index of QGWMNLLNMAKKSVDIVSSHWDLN [PLD5] is greater than or equal to 3
result: true

###

Test: protein stability index of a GFP-peptide fusion (GPS, HEK-293T) (PSI 1-6); higher = more stable
Conditions: treatment: DMSO; c terminus: a fixed tail appended
Response key: t means protein stability index >= 3; f means protein stability index < 3.

Here are 5 sequences together with their reported answers.
{"Sequence": "NTNLHTHQRTHTGEKPFTCHECGK [ZNF75A]", "Category": "t"}
{"Sequence": "LRKREKAEEKERRRKEYDALKAAK [LRRC59]", "Category": "t"}
{"Sequence": "LEAGLPLQVRGYPEEKKEEEGSAN [CHGA]", "Category": "t"}
{"Sequence": "NKALSIILHLICLLEKVPCTLEQD [FEM1C]", "Category": "f"}
{"Sequence": "MTVMSGENVDEASAAPGHPQDGSY [KCNA1]", "Category": "t"}

Shift focus to the following entry.
query: # check: protein stability index of QSIIAIIRAMGRLKIDFGDSARAD [GNAI1] is greater than or equal to 3
result: f

###

Assay: protein stability index of a GFP-peptide fusion (GPS, HEK-293T) (PSI 1-6); higher = more stable
Settings: treatment: DMSO; c terminus: a fixed tail appended
Assay Readout: protein stability index

In the examples that follow, each entry is paired with its recorded protein stability index.
{"Sequence": "TVPDEFTVEERQTGMWWRHLVAGG [SLC25A25]", "Assay Readout": "protein stability index", "Result": 2.77}
{"Sequence": "SYLREQMLNEPLVREIVKECSNIP [GAN]", "Assay Readout": "protein stability index", "Result": 3.21}
{"Sequence": "APEIDPSSDGSNFGWETKIKAWMD [KMT2E]", "Assay Readout": "protein stability index", "Result": 4.21}

Let us move to another entry and its protein stability index.
Value of measured protein stability index for the entry KYGDIPRGIFVVRGENVVLLGEID [LSM1] : 2.27

###

Test: protein stability index of a GFP-peptide fusion (GPS, HEK-293T) (PSI 1-6); higher = more stable
Conditions: treatment: MLN4924 1 uM, 8 h; c terminus: a fixed tail appended
Response key: T means protein stability index >= 3; F means protein stability index < 3.

query: # check: protein stability index of PQVWREAATQVFFALGLGFGGVIA [SLC6A17] is greater than or equal to 3
result: T

query: # check: protein stability index of TDRSHIYTFTDTFTEKLWPLFYPG [TRIM39] is greater than or equal to 3
result: F

query: # check: protein stability index of AVWGQCQVRIRYLGERRAEPHSLL [SPSB2] is greater than or equal to 3
result: F

query: # check: protein stability index of NSVCSKFRKEIKSKSADNQEYFER [RHOBTB1] is greater than or equal to 3
result: T

query: # check: protein stability index of RRSVRKNHMYSCRFSRQCVVDKDK [HNF4A] is greater than or equal to 3
result: T

###

Assay: protein stability index of a GFP-peptide fusion (GPS, HEK-293T) (PSI 1-6); higher = more stable
Settings: treatment: MLN4924 1 uM, 8 h; c terminus: a fixed tail appended
Catalogue of protein stability index readings, one per entry.

{"Sequence": "GIKSKEAEEYRLKEHYLTFEKSRY [PSD2]", "protein stability index": 3.94}
{"Sequence": "SRLLGSASPSSSVRLGSFRSPRAG [PRPH]", "protein stability index": 3.96}
{"Sequence": "ETIEGAPPLWAASAAGHLKVVQSL [FEM1C]", "protein stability index": 3.04}
{"Sequence": "TCVNLLLEASNYQMMPYMQPVMQS [KLHL13]", "protein stability index": 2.98}
{"Sequence": "CTLPQLAIAWCLRNEGVSSVLLGA [KCNAB2]", "protein stability index": 2.89}
{"Sequence": "LLDEIVPVYRRDCHEEVYAGSHQY [ACBD3]", "protein stability index": 3.13}
{"Sequence": "CPWEPQKQPPWEFLQVLEPGARGL [SPAG8]", "protein stability index": 3.36}
{"Sequence": "QGGGNGQQQQAMSFAILRIIRLVR [KCNA4]", "protein stability index": 2.67}

Value of measured protein stability index for the entry GSSETETEPPVALAPGPAPTRCLP [ESRRA] : 5.16

Value of measured protein stability index for the entry AEISQPPALSQLVNLYLGRSHFLW [TCF25] : 2.73
